Biological target: Adenosine receptor A3 (Homo sapiens, UniProt P0DMS8)
Sequence (P0DMS8 whole entry): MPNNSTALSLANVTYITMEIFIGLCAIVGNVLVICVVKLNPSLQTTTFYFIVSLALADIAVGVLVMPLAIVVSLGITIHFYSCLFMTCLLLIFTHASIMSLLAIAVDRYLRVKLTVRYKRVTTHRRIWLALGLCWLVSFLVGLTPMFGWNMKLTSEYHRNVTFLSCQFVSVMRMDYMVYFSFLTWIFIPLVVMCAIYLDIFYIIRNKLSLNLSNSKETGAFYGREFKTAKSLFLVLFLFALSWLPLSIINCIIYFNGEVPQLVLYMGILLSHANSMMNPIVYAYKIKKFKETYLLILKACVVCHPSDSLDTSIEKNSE
Assay: Binding affinity to human A3 adenosine receptor assessed as inhibition constant
measured-parameter: Ki (nM)
Hi! Could you send only the number? It should be in nM, unit omitted.

// Ki value for CC[C@@H]1Cn2c(c3nc(-c4cc(Cl)cc(Cl)c4Cl)nc-3n(C)c2=O)N1 : 0.433

----------
Molecular target: Adenosine receptor A2b (Homo sapiens, UniProt P29275)
Sequence (P29275 whole entry): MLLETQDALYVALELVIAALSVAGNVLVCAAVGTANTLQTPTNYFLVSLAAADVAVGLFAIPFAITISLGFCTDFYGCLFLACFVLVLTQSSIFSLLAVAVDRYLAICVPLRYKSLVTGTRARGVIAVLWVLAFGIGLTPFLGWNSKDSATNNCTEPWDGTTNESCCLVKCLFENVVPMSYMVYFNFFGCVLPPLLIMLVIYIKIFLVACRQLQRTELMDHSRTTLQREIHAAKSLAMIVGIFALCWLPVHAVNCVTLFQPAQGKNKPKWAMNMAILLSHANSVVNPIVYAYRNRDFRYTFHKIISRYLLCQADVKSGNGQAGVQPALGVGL
measured-parameter: pKi
Bear in mind: pKi is minus log10 of a mol/L concentration; give just that figure.

Tested on Adenosine receptor A2b (Homo sapiens, UniProt P29275), the item CCCn1c(=O)[nH]c2nc(-c3cnn(Cc4noc(-c5ccc(Cl)cc5)n4)c3)[nH]c2c1=O showed pKi equal to 8.26
